biological target: UniProtKB O42275
Sequence (O42275 whole entry): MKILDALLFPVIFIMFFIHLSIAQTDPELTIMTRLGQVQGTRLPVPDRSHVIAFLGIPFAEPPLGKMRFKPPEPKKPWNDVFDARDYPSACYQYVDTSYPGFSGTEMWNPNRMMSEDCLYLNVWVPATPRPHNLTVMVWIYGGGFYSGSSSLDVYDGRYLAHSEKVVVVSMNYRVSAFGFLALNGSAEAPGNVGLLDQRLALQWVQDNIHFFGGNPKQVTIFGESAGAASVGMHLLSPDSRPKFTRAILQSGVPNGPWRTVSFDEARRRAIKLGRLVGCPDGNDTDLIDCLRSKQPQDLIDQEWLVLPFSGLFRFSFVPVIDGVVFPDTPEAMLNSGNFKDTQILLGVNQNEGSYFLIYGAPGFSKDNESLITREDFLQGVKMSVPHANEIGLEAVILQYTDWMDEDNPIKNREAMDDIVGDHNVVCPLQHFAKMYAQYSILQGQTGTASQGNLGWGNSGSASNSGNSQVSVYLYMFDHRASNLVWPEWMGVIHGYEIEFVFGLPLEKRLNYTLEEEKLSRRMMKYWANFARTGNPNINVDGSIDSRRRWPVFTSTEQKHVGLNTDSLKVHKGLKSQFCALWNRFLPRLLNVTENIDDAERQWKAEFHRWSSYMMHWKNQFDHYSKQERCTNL
experimental-readout: pIC50
Give bare numbers, as −log10 of the molar value.

>>> endpoint_value("COc1cc(C(=O)NCCCC(=O)NNc2c3c(nc4ccccc24)CCCC3)cc(OC)c1OC")
7.22
>>> endpoint_value("NNc1c2c(nc3ccccc13)CCCC2")
4.89

For every listed record, write down its pIC50.
1. COc1cc(CCC(=O)NCCCC(=O)NNc2c3c(nc4ccccc24)CCCC3)cc(OC)c1OC
2. COc1cc(C(=O)NCCCCCC(=O)NNc2c3c(nc4ccccc24)CCCC3)cc(OC)c1OC
3. COc1cc(C(=O)NCCCCC(=O)NNc2c3c(nc4ccccc24)CCCC3)cc(OC)c1OC
4. COc1cc(C(=O)NCCCCCCCC(=O)NN)cc(OC)c1OC
5. COc1cc(C(=O)NCCC(=O)NNc2c3c(nc4ccccc24)CCCC3)cc(OC)c1OC
6. COc1cc(CCC(=O)NCCCCC(=O)NNc2c3c(nc4ccccc24)CCCC3)cc(OC)c1OC

RESULT:
[7.28, 7.70, 7.69, 4.74, 7.00, 7.26]
